Data origin, for the record: paper PMC11945486

SYSTEM_NAME: human TAS1R2-R317P/TAS1R3-WT (Homo sapiens, UniProt Q7RTX0+Q8TE23, R317P)
Construct: expressed in transfected cells; host or cells: HEK293T-Gα16gust44
Sequence (Q8TE23 20-839 R317P): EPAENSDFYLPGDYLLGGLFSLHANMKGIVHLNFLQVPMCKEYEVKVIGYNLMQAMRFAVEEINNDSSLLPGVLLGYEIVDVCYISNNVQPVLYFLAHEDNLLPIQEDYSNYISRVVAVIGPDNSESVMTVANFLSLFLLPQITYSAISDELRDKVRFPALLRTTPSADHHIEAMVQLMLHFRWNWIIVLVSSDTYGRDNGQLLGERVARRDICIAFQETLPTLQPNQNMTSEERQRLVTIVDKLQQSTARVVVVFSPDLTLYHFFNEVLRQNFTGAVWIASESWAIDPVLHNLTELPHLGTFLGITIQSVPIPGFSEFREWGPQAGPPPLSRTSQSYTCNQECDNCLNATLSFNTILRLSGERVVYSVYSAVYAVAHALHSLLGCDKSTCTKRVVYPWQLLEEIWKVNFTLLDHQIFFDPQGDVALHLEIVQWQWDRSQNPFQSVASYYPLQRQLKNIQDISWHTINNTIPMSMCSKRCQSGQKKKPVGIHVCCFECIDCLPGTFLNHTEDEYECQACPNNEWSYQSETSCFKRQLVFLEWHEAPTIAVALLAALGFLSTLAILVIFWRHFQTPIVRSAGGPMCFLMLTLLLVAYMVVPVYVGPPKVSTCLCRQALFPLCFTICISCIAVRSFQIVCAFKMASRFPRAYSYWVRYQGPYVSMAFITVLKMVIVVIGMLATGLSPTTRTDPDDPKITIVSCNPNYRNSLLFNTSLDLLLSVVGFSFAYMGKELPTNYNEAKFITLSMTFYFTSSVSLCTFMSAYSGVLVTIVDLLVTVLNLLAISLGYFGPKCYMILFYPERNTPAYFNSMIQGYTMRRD
Sequence (Q7RTX0 21-852): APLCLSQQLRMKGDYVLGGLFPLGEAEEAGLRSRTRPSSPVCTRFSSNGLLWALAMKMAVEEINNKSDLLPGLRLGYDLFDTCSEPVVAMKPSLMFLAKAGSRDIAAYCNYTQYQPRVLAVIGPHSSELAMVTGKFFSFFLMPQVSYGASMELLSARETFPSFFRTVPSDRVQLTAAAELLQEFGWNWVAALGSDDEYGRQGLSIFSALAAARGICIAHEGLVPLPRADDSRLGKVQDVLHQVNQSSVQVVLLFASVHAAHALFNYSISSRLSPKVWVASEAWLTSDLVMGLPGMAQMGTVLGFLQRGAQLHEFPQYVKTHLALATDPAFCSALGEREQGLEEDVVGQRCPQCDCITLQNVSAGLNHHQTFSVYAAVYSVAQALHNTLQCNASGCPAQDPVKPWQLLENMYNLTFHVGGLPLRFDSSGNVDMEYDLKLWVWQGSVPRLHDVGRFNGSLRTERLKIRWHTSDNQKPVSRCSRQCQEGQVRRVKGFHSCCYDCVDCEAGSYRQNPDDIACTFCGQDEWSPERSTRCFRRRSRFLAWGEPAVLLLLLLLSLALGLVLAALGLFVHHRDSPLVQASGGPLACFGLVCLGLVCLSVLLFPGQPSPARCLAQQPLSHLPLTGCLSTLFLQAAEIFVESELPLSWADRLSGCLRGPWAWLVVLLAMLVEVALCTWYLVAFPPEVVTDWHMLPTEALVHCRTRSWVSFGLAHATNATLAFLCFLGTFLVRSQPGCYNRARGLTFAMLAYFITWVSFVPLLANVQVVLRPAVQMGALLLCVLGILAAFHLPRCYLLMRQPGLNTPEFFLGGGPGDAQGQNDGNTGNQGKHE
TEST_METHOD_NOTES: Calcium mobilisation assay, TAS1R2 variant R317P with TAS1R3-WT
Type: cell-based
ASSAY_READOUT: R1 = Variant EC50/WT EC50

Past entries and their recorded results:
COMPOUND	ASSAY_VALUE
COC(=O)[C@H](Cc1ccccc1)NC(=O)[C@H](CC(=O)O)NCCC(C)(C)C	1.0
COc1ccc(CCC(=O)c2c(O)cc(O[C@@H]3O[C@H](CO)[C@@H](O)[C@H](O)[C@H]3O[C@@H]3O[C@@H](C)[C@H](O)[C@@H](O)[C@H]3O)cc2O)cc1O [NHDC, neohesperidin dihydrochalcone]	2.2

P = C=C(C)[C@@H]1CC=C(/C=N/O)CC1
Q = OC[C@H]1O[C@H](O[C@]2(CCl)O[C@H](CCl)[C@@H](O)[C@@H]2O)[C@H](O)[C@@H](O)[C@H]1Cl
Query :: Sorting by R1 = Variant EC50/WT EC50 in descending order, would P or Q appear first? Which one? Tell me its label.
Result :: P
